Molecular target: T1, human PD-L1 over-expressed on HEK293E cells (human, UniProt Q9NZQ7 19-290)
T1 construct: whole, on cells; also called human PD-L1 (NM_014143.2)
T1 sequence (Q9NZQ7 19-290): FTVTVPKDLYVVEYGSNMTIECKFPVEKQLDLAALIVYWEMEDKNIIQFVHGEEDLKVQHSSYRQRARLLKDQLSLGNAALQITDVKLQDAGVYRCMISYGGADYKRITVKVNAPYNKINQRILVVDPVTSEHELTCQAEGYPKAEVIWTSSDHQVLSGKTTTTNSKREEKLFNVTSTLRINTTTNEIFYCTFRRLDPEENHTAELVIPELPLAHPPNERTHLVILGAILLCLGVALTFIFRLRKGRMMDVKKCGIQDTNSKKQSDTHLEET
Assay: flow cytometry on HEK293E/PD-L1 cells, FITC anti-human IgG, serial dilutions; fit table
MEASURED ENDPOINT: pKd
Keep it numeric: pKd is minus log10 of the concentration in mol/L.

Past entries and their recorded results:
Query: Given PDL1-16E12 (LS/4F5) (antibody, V domains shown, also called 16E12(4F5); 16E12-4F5) VH: QMQLVQSGAEVKKPGSSVKVSCKASGGTFSSYAISWVRQAPGQGLEWMGRIIPILGIANYAQKFQGRVTITADKSTSTAYMELSSLRSEDTAVYYCAKPRDGYNLVAFDIWGQGTMVTVSS VL: QLVLTQPPSVSGAPGQRVTISCTGSSSNIGAGYDVHWYQQLPGAAPKLLIYGDINRPSGVPDRFSGSKSGISASLAITGLQAEDEADYYCQSYDSSLSGGVFGGGTKLTVL , state its recorded pKd.
Result: 8.84

Query: Given PDL1-16E12 (LS/4C9) (antibody, V domains shown, also called PD-L1-16E12-4C9) VH: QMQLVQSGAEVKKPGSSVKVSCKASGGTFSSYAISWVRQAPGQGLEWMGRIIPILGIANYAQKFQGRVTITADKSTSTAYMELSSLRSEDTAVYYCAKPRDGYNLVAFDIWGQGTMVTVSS VL: QLVLTQPPSVSGAPGQRVTISCTGGSSNIGAGYDVHWYQQLPGTAPKLLLFGNTNRPSGVPGRFSGSKSGSSASLAITGLQSDDEADYYCQSYDSSLGGSVIGTGTKVTVL , state its recorded pKd.
Result: 8.62

Query: Given PDL1-16E12 (LS/4A7) (antibody, V domains shown, also called PD-L1-16E12-4A7) VH: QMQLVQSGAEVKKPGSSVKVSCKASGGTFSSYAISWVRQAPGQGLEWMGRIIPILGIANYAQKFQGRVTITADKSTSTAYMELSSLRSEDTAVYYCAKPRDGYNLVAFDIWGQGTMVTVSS VL: QLVLTQPPSVSGAPGQRVTISCTGSSSNIGAGYDVHWYQSLPGTVPKLLISGNSNRPPGVPDRFSGSKSGTSASLAITSLQSEDEADYYCHSYDGSLSEGVFGTGTKVTVL , state its recorded pKd.
Result: 8.41

// switching to the query binder
Query: Given PDL1-16E12 (LS/4H8) (antibody, V domains shown, also called PD-L1-16E12-4H8) VH: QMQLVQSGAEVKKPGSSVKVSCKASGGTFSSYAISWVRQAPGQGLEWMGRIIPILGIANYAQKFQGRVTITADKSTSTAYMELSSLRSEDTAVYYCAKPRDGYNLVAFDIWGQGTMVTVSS VL: QLVLTQPSSVSGAPGQRVTISCTGSSSNIGAGYDVHWYQQLPGTAPKLLIYGNSNRPSGVPDRFSGSKSGTSASLAITGLQAEDEADYYCQSYDSSLSGSGVFGTGTKVTVL , state its recorded pKd.
Result: 8.70
